competition rate values by entry
- Experimental system: T1, human MSLN-FL-his protein (human, UniProt Q13421 296-580)
- T1 construct: made in HEK293E cells, purified on nickel column; also called hMSLN-FL-his; human MSLN full-length protein; not shown: His tag
- T1 sequence (Q13421 other isoform, or with tags, fused parts or gaps): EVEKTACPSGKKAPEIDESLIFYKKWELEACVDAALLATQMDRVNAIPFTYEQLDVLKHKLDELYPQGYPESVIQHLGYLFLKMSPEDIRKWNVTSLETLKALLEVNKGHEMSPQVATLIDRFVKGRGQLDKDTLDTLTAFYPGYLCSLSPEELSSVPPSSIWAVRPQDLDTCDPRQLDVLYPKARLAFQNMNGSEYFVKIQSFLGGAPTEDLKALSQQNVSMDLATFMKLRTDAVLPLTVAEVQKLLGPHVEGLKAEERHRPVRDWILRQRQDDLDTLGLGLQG
- Test details: competitive ELISA; row F8-18.9; further: test concentration or dose not given here
# value in %; strip the unit string

- Binder: "S009-F8-31.22 (antibody, human IgG1, kappa, V domains shown, human-murine chimeric antibody, human IgG1/kappa constant regions) VH: EVQLVESGGDLVKPGGSLKLSCAASGFTFSTYGMSWVRQTPDKRLEWVATISSGGSYTYYPDSLKGRFTISRDNAKNTLYLQMSSLKSEDTAMYYCARHEGYYYGKDYWGQGTTLTVSS VL: DIVLTQSPATLSVTPGDSVSLSCRASHSISNNLHWYQQKSHESPRLLIKYASQSISGIPSKFSGSGSGTDFTLSINSVETEDFGMYFCQQTNSWPLTFGAGTKLELKR"
  Unit abbreviation: "%"
  competition rate: 0.11
- Binder: "S009-F8-18.9 (antibody, human IgG1, kappa, V domains shown, human-murine chimeric antibody, human IgG1/kappa constant regions) VH: EFQLQQSGPELVKPGASVKISCKASGYSFTDYNMNWVKQSNGKSLEWIGIINPNYGTTSYNQKFKGRATLTVDQSSSTAYVQLNSLTSEDSAVYYCARGGYDNEAMDYWGQGTSVTVSS VL: QIVLTQSPAIMSASPGEKVTMTCSASSSVSYMHWYQQKSGTSPKRWIYDTSKLASGVPARFSGSGSGTSYSLTISSMEAEDAATYYCQQWSSNPPTFGAGTKLELKR"
  Unit abbreviation: "%"
  competition rate: 6.6
- Binder: "S009-F8-15.19 (antibody, human IgG1, kappa, V domains shown, human-murine chimeric antibody, human IgG1/kappa constant regions) VH: EFQLQQSGPELVKPGASVKISCKASGYSFTDYNMNWVKQSNGKSLEWIGIINPYYGTTSNNQNFKGKATLTVDQSSSTAYMQLNSLTSDDSAVYYCARWLRRDAMDYWGQGTSVTVSS VL: DIVMTPSHKFMSTSVGDRVSIACKASQDVGSSVAWYQQKPGQSPKLLIYWTSTRHTGVPDRFTGSGSGTDFTLTISNVQSEDLADYFCQQYSSYPWTFGGGTKLEIKR"
  Unit abbreviation: "%"
  competition rate: 8.37

Now for another entry.
Lab book: competition rate of S009-F8-13.8 (antibody, human IgG1, kappa, V domains shown, human-murine chimeric antibody, human IgG1/kappa constant regions) VH: EFQLQQSGPELVKPGASVKISCKASGYSFTDYNMNWVKQTNGKSLEWIGIINPNYGTSSYNQKFKGKATLTVDQSSSTAYMQLNSLTSEDSAVYYCARVGRDNSGFDYWGQGTTLTVSS VL: QIVLTQSPAIMSASPGEKVTMTCSASSSVSYMYWYQQKPGSSPRLLIYDTSNLASGVPVRFSGSGSGTSYSLTISRMEAEDAATYYCQQWSSYPPTFGSGTELEIKR noted as 11.3
